Source of measurements: PubChem BioAssay (NCATS)

Quick reference: activity, percent of control of the listed items.
- assayText: qHTS profiling for inhibitors of Plasmodium falciparum (DD2) proliferation (AID 743323)
- studyConditions: lower = more inhibition; at 28.7 µM (top of the series)
- Experimental: Plasmodium falciparum is a virulent malarial parasite that kills 1-2 million people worldwide each year. […] Because mature erythrocytes lack DNA, only Plasmodium-derived DNA is detected. The SYBR Green viability assay was adapted from a method described previously (Plouffe et al., 2008). […] The following morning, fluorescence intensity at 485(14) nm excitation and 535(25) nm emission wavelengths was measured on an EnVision (Perkin Elmer) plate reader. […]
A number alone suffices; assume %.

Q. Which activity, percent of control is listed for CC(C)(C)OC(=O)N[C@@H](Cc1ccc(O[S+](=O)([O-])c2cccc3cnccc23)cc1)C(=O)N1CCN(c2ccccc2)CC1 ?
A. -0.0871

Q. Which activity, percent of control is listed for O=C([C@@H](Cc1ccc(O[S+](=O)([O-])c2cccnc2)cc1)N[S+](=O)([O-])c1cccc2cccnc12)N1CCN(c2ccccc2)CC1 ?
A. 0.464

Q. Which activity, percent of control is listed for N[C@@H](Cc1ccc(OS(=O)(=O)c2cccnc2)cc1)C(=O)N1CCN(c2ccccc2)CC1 ?
A. 15.1

---

- assayTarget: Nuclear receptor subfamily 1 group I member 3 (Homo sapiens)
- assayText: qHTS for Constitutive Androstane Receptor (CAR) Antagonist screened against the NCATS CANVASS Library (AID 1347372)
- studyConditions: HepG2-hCAR-CYP2B6 luciferase, CITCO-stimulated antagonist mode; series mostly up to 46.1 µM
Records with an inconclusive call do not appear. Activity calls are given as the source filed them. Calls follow the shape of the dose curve; as a rule, active = well fitted inhibition curve with a large enough effect; inconclusive = small, poorly fitted or top-dose-only effect; inactive = no such curve, though single readings can be large or run the other way.
Just give me one of these, please: YES (active), NO (inactive)

Below, 5 compounds whose answers are already recorded.
• C/C(=C\[C@H](C)C(=O)/C=C/CC1CC(=O)NC(=O)C1)[C@@H]1OC(=O)/C=C/CC/C=C/C[C@@H](O)[C@@H]1C = YES
• C=C1C[C@H]2O[C@@H]3[C@@H]4[C@H](CC[C@@](C)(O)[C@@H]42)[C@H](C)COC3(C)[C@@H](OC(=O)CCCCCCC)C[C@H]1O (some centres not stated) = NO
• C=C[C@]1(C)CC[C@@H]([C@H](C)C(=O)/C=C/C(C)(C)O)O1 = NO
• CC(=O)Oc1cc2c(c(OC(C)=O)c1C1CCc3cc(Cl)c(Cl)n31)C(=O)n1c-2cc(Cl)c1Cl (configuration not stated) = NO
• C=CC(CCCCC)C1C(=O)NC(=O)C1C(=O)C1C2C(C)CC(C(=O)O)CC2CC1(O)C(=O)/C=C/C (configuration not stated) = NO

Q. I'd appreciate the recorded outcome for CC(C)[C@]12CC[C@@]3(C)[C@H](C)CC[C@H](O)[C@@]3(CC1)c1cc3c(cc12)[nH]c1ccccc13 from this test.
A. NO

Q. I'd appreciate the recorded outcome for C/C(=C\[C@H](C)C(=O)C[C@H](O)CC1CC(=O)NC(=O)C1)[C@@H]1OC(=O)CCCC/C=C/C[C@@H](O)[C@@H]1C from this test.
A. YES

Q. I'd appreciate the recorded outcome for C[C@H]1CCC2(OC1)O[C@H]1C[C@H]3[C@@H]4CC(=O)[C@]5(O)C[C@H](O)CC[C@@]5(C)[C@H]4CC[C@@]3(C)[C@H]1[C@H]2C (some centres not stated) from this test.
A. NO
